Measured On: PCAF Brd (Homo sapiens)
Construct: Human bromodomains were cloned, expressed and purified as previously described; made in house
Sequence (Q92831 723-827 limits assumed): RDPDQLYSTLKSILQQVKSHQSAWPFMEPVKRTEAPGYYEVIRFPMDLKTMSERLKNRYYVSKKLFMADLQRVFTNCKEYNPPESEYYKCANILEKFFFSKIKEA
Protocol Description: Isothermal titration calorimetry (ITC), PCAF Brd
Type: binding
Condition Summary: Supplemental Table 3; compound concentration 30 μM, protein concentration 280-320 μM; read-out: PCAF KD (μM) (ITC)
The molecules listed here are annotated with their Kd.

Here's what some known entries look like.
| Molecule | Kd |
| --- | --- |
| Cc1nnc2c3ccccc3c(NCCN3CCN(C)CC3)nn12 [Compound 69] | > 30 µM |
| Cc1nnc2c3ccccc3c(N3CCCC(N(C)C)C3)nn12 (stereo not shown) [Compound 75] | > 30 µM |
| CCC(CN(C)C)Nc1nn2c(C)nnc2c2ccccc12 (stereo not shown) [Compound 12] | 1.76 µM |
| Cc1nnc2c3ccccc3c(N[C@@H]3CCCN(Cc4ccccc4)C3)nn12 [Compound 64] | > 30 µM |

Qu. Would you mind telling me what Kd value was observed for Cc1nnc2c3ccccc3c(N3CCN4CCCCC4C3)nn12 (stereo not shown) [Compound 73] ?
Ans. > 30 µM

Qu. Another: Cc1nnc2c3ccccc3c(N[C@H]3CCC[C@@H]3N(C)C)nn12 [Compound 76]
Ans. 0.168 µM

Qu. Follow-up item: CCN1CCCC1CNc1nn2c(C(F)(F)F)nnc2c2ccccc12 (stereo not shown) [Compound 91]
Ans. > 30 µM

Where do the numbers come from? From paper PMC5412877.
